Experiment: Powder fluidity test (angle of repose)
Format: physicochemical
Details: Form III compared to existing Pimavanserin tartrate Form A, B and C
Structures can show the parent of a compound that is named as a salt.

molecule: CC(C)COc1ccc(CNC(=O)N(Cc2ccc(F)cc2)C2CCN(C)CC2)cc1 [Form B, tartrate]
powder flowability (in words): poor

molecule: CC(C)COc1ccc(CNC(=O)N(Cc2ccc(F)cc2)C2CCN(C)CC2)cc1 [Form C, tartrate]
powder flowability (in words): poor

molecule: CC(C)COc1ccc(CNC(=O)N(Cc2ccc(F)cc2)C2CCN(C)CC2)cc1 [Form A, tartrate]
powder flowability (in words): poor

====

Test: Powder fluidity test (angle of repose)
Assay type: physicochemical
Details: powder through two funnels onto 7 cm diameter petri dish; α=arc tg(H/R); average of three measurements; ≤30 degrees good, >40 degrees very poor flowability; tartrate
Structures can show the parent of a compound that is named as a salt.
Task for the reader: assign each of the following molecules its reported angle of repose.
Number in °, nothing else.

Item: CC(C)COc1ccc(CNC(=O)N(Cc2ccc(F)cc2)C2CCN(C)CC2)cc1 [Form C, tartrate] | angle of repose: 41

Item: CC(C)COc1ccc(CNC(=O)N(Cc2ccc(F)cc2)C2CCN(C)CC2)cc1 [Form A, tartrate] | angle of repose: 45

Item: CC(C)COc1ccc(CNC(=O)N(Cc2ccc(F)cc2)C2CCN(C)CC2)cc1 [Form B, tartrate] | angle of repose: 43

Item: CC(C)COc1ccc(CNC(=O)N(Cc2ccc(F)cc2)C2CCN(C)CC2)cc1 [Form III, tartrate] | angle of repose: 32
